Sourced from patent US20130109846A1

# test-system: human CD28 (human, UniProt P10747 19-220)
# assay-explanation: cell-based or functional assay
Sorting guide: entries reporting Luciferase assay (EC50) beneath 0.01 µM go in the t pile, the rest go in the f pile.

binder: 1h-99-270 (other) VH: EVQLLESGGGLVQPGGSLRLSCAASGFTFYKANMSWARQAPGKGLEWVSWIEASGVQTFYADSVKGRFTISRDNSKNTLYLQMNSLRAEDTAVYYCAKSPFGPLYGFDYRGQGTLVTVSS
assigned-class: t

binder: 1h-99-1 (other) VH: EVQLLESGGGLVQPGGSLRLSCAASGFTFDSANMTWVRQAPGKGLEWVSWIEDTGTQTFYADSVRGRFTISRDNFKNTLYLQMNSLRAEDTAVYYCAKSPFGPLYGFDYRGQGTLVTVSS
assigned-class: f

binder: 1h-81 (other) VL: DIQMTQSPSSLSASVGDRVTITCRASQEIDHGLAWYQQKPGKAPKLLIYWASRLQSGVPSRFSGSGSGTDFTLTISSLQPEDFATYYCQQVVAAPFTFGQGTKVEIKR
assigned-class: f

binder: 1h-35-5 (other) VL: DIQMTQSPSSLSASVGDRVTITCRASQYIGSAISWYQQKPGRAPKLLIYRASYLQSGVPSRFSGSGSGTDFTLTISSLQPEDFATYYCQQLAIRPFTFGQGTKVGIKR
assigned-class: f

binder: 1h-99-224 (other) VH: EVQLLESGGGLVQPGGSLRLSCAASGFTFSHNNMSWVRQAPGKGLEWVSWIEDTGTQTFYADSVKGRFTISRDNSKNTLYLQMNSLRAEDTAVYYCAKSPFGPLYGFDYRGQGTLVTVSS
assigned-class: f

binder: 1h-73 (other) VL: DIQMTQSPSSLSASVGDRVTITCRASQYIGTQLSWYQQKPGKAPKLLIYRGSLLQSGVPSRFSGSGSGTDFTLTISSLQPEDFATYYCQQTALSPYTFGQGTKVEIKR
assigned-class: f

binder: 1h-239-833 (other) VL: DIQMTQSPSSLSASVGDRVTITCRASQSIYPFLEWYQQKPGKAPKLLIYFTSRLRAGVPSRFSGSGSGTDFTLTISSLQPEDFATYYCLQNVTNPATFSQGTKVEIKR
assigned-class: t

binder: 1h-80-1 (other) VL: DIQMTQSPSSLSASVGDRVTITCRASQRIGSNLAWYQQKPGRAPKLLIYWASLLQSGVPSRFSGSGSGTDFTLIISSLQPEDFATYYCQQTRSAPFAFGQGTKVEIKR
assigned-class: f
